# study target: UniProt P51512
reported property: IC50

{"molecule": "O=C(CC(CCn1nnc2ccccc2c1=O)C(=O)O)c1coc2cc(OCCC3CCCC3)ccc12 (racemic)", "IC50": "> 40 µM"}
{"molecule": "O=C(CC(CCn1nnc2ccccc2c1=O)C(=O)O)c1onc2cc(OCc3ccccc3)ccc12 (racemic)", "IC50": "38 µM"}
{"molecule": "CCCCCCOc1ccc2c(C(=O)CC(CCn3nnc4ccccc4c3=O)C(=O)O)coc2c1 (single isomer, unassigned; (+))", "IC50": "> 40 µM"}

Next molecule, please.
### Prompt I would be grateful if you could share the reported IC50 for O=C(CC(CCn1nnc2ccccc2c1=O)C(=O)O)c1cc2cc(OCC3CCOCC3)ccc2o1 (racemic) .
### Response > 40 µM

* * *

Items are presented alongside their recorded IC50.
# study target: MMP-8 (Homo sapiens)
# Sequence (P22894 101-467): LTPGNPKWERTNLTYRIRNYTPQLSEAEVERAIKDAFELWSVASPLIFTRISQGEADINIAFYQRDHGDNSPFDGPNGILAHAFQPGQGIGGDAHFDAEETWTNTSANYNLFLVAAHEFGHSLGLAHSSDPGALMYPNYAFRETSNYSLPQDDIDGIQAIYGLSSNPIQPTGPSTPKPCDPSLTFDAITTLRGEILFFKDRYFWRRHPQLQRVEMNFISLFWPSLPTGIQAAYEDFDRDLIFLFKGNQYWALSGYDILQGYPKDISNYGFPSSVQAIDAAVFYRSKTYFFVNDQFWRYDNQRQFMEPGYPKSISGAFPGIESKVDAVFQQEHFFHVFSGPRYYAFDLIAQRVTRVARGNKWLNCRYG
Quick reminder: number only, in nM, skip the unit.

Take a look at these entries with their results.
{"compound": "O=C(CC(CCn1nnc2ccccc2c1=O)C(=O)O)c1noc2cc(OCC3CCCCC3)ccc12 (racemic)", "IC50 (nM)": 1700}
{"compound": "O=C(CC(CCn1nnc2ccccc2c1=O)C(=O)O)c1cc2cc(OCCC3CCCC3)ccc2o1 (racemic)", "IC50 (nM)": 22000}
{"compound": "CCCOc1ccc2cc(C(=O)CC(CCn3nnc4ccccc4c3=O)C(=O)O)oc2c1 (racemic)", "IC50 (nM)": 10000}
{"compound": "CCCCCCOc1ccc2c(C(=O)CC(CCn3nnc4ccccc4c3=O)C(=O)O)coc2c1 (single isomer, unassigned; (+))", "IC50 (nM)": 2800}
{"compound": "CCCCCCCOc1ccc2c(C(=O)CC(CCn3nnc4ccccc4c3=O)C(=O)O)coc2c1 (racemic)", "IC50 (nM)": 12000}

### Prompt I would be grateful if you could share the reported IC50 for O=C(CC(CCn1nnc2ccccc2c1=O)C(=O)O)c1noc2cc(OCc3cccnc3)ccc12 (racemic) .
### Response 270

### Prompt Another: O=C(CC(CCn1nnc2ccc(C(F)(F)F)cc2c1=O)C(=O)O)c1noc2cc(OCc3ccccc3)ccc12 (racemic)
### Response 970

* * *

Items are presented alongside their recorded IC50.
# study target: MMP-3 (Homo sapiens)
# Sequence (P08254 100-477): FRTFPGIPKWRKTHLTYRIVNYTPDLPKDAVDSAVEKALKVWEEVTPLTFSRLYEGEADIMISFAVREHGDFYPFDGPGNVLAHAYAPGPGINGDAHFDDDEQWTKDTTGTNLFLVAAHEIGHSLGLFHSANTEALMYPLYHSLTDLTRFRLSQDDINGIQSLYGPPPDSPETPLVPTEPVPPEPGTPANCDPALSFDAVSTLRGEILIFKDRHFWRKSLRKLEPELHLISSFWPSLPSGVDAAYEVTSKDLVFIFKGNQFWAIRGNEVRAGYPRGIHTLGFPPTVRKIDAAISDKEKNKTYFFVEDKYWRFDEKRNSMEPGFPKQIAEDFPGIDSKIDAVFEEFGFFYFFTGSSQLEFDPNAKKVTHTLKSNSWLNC

Take a look at these entries with their results.
{"compound": "CCCCCCOc1ccc2c(C(=O)CC(CCn3nnc4ccccc4c3=O)C(=O)O)coc2c1 (single isomer, unassigned; (+)) [Example 100]", "reported property": "IC50", "measurement": "> 40 µM"}
{"compound": "O=C(CC(CCn1nnc2ccccc2c1=O)C(=O)O)c1coc2cc(OCC3CCCCC3)ccc12 (single isomer, unassigned; (+)) [Example 82]", "reported property": "IC50", "measurement": "16 µM"}
{"compound": "Cc1cccc(COc2ccc3oc(C(=O)CC(CCn4nnc5ccccc5c4=O)C(=O)O)cc3c2)c1 (racemic) [Example 51]", "reported property": "IC50", "measurement": "> 40 µM"}

### Prompt I would be grateful if you could share the reported IC50 for O=C(CC(CCn1nnc2ccccc2c1=O)C(=O)O)c1noc2cc(OCCc3ccccc3)ccc12 (racemic) [Example 144] .
### Response 18 µM

### Prompt Another: O=C(CC(CCn1nnc2ccccc2c1=O)C(=O)O)c1coc2cc(OCCC3CCCC3)ccc12 (racemic) [Example 75]
### Response > 40 µM

### Prompt Another: CCCCCCCOc1ccc2c(C(=O)CC(CCn3nnc4ccccc4c3=O)C(=O)O)coc2c1 (racemic) [Example 101]
### Response > 40 µM

### Prompt Another: O=C(CC(CCn1nnc2ccccc2c1=O)C(=O)O)c1noc2cc(OCC3CC3)ccc12 (racemic) [Example 150]
### Response 33 µM

### Prompt Another: O=C(CC(CCn1nnc2ccccc2c1=O)C(=O)O)c1onc2cc(OCc3ccccc3)ccc12 (racemic) [Example 156]
### Response 13 µM

### Prompt Another: CCCCCOc1ccc2cc(C(=O)CC(CCn3nnc4ccccc4c3=O)C(=O)O)sc2c1 (racemic) [Example 118]
### Response 16 µM

### Prompt Another: O=C(CC(CCn1nnc2ccccc2c1=O)C(=O)O)c1cc2cc(OCc3cccc(Cl)c3)ccc2o1 (racemic) [Example 50]
### Response 34 µM

### Prompt Another: CCCCCCCOc1ccc2cc(C(=O)CC(CCn3nnc4ccccc4c3=O)C(=O)O)oc2c1 (single isomer, unassigned; (+)) [Example 69]
### Response 36 µM

### Prompt Another: O=C(CC(CCn1nnc2ccc(C(F)(F)F)cc2c1=O)C(=O)O)c1noc2cc(OCC3CCOCC3)ccc12 (racemic) [Example 155]
### Response 19 µM

### Prompt Another: O=C(CC(CCn1nnc2ccccc2c1=O)C(=O)O)c1cc2ccc(OCCCC3CCCCC3)cc2o1 (racemic) [Example 71]
### Response > 40 µM

### Prompt Another: O=C(CC(CCn1nnc2ccccc2c1=O)C(=O)O)c1cc2cc(OCC3CCCCC3)ccc2o1 (racemic) [Example 8]
### Response > 40 µM

### Prompt Another: O=C(CC(CCn1nnc2ccccc2c1=O)C(=O)O)c1cc2ccc(OCCc3ccccc3)cc2o1 (racemic) [Example 73]
### Response 29 µM

### Prompt Another: O=C(CC(CCn1nnc2ccccc2c1=O)C(=O)O)c1cc2ccc(OCC3CC3)cc2s1 (single isomer, unassigned; (+)) [Example 112]
### Response 6.4 µM

### Prompt Another: CCCCCOc1ccc2c(C(=O)CC(CCn3nnc4ccccc4c3=O)C(=O)O)coc2c1 (racemic) [Example 89]
### Response > 40 µM

### Prompt Another: CCCCCOc1ccc2c(C(=O)CC(CCn3nnc4ccccc4c3=O)C(=O)O)coc2c1 (single isomer, unassigned) [Example 91]
### Response 17 µM

### Prompt Another: O=C(CC(CCn1nnc2ccccc2c1=O)C(=O)O)c1noc2cc(OCc3ccccc3)ccc12 (racemic) [Example 145]
### Response 8.9 µM

### Prompt Another: O=C(CC(CCn1nnc2ccccc2c1=O)C(=O)O)c1cc2cc(OCc3ccccc3)ccc2o1 (single isomer, unassigned; (+)) [Example 30]
### Response > 40 µM

### Prompt Another: O=C(CC(CCn1nnc2ccccc2c1=O)C(=O)O)c1cc2ccc(OCCc3ccccc3)cc2s1 (racemic) [Example 114]
### Response 3.2 µM

### Prompt Another: O=C(CC(CCn1nnc2ccccc2c1=O)C(=O)O)c1cc2cc(OCc3ccc(C(F)(F)F)cc3)ccc2o1 (racemic) [Example 44]
### Response 23 µM

### Prompt Another: O=C(CC(CCn1nnc2ccccc2c1=O)C(=O)O)c1noc2cc(OCc3ccc(F)cc3)ccc12 (racemic) [Example 136]
### Response 15 µM

### Prompt Another: O=C(CC(CCn1nnc2ccccc2c1=O)C(=O)O)c1noc2cc(OCc3cccnc3)ccc12 (racemic) [Example 148]
### Response 9.1 µM
